# Tested Target: T1, CD137 expressed on the cell surface of HT1080_4-1BB cells (human, UniProt Q07011 24-255)
# T1 construct: whole, on cells; species not restated for the HT1080 transfectant
# T1 sequence (Q07011 24-255): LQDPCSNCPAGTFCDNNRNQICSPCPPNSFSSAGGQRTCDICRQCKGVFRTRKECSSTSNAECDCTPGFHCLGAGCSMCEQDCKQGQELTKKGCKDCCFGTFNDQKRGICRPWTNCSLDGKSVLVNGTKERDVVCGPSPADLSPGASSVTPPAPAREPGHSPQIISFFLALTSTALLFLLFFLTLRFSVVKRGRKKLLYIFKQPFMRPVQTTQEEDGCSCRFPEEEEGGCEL
# Experimental Details: HT1080_4-1BB cells, imaging; note: test concentration or dose not given here
Outcome Measure: Cellular binding assay [RFU] (RFU)

binder="P018.S.08.A.A04 (antibody, V domains shown, V regions on human Ig constant parts; also called AB137_1) VH: QSVEESGGRLVTPGTPLTLTCTVSGFSLSSYAVSWVRQAPGKGLEWIGVIWNNGATHYATWAKGRFTISKASTTVDLKVTSPTTEDTATYFCARSANDAWSTYSDLWGQGTLVTVSS VL: DIVMTQTPASVEAAVGGTVTIKCQASQTITNYLSWYQQKPGQPPKLLIYKASTLTSGVSSRFKGSGSGTEFTLTISDLESDDAATYYCQNYYYGSSSGYGFVFGGGTEVVVK" outcome_measure="Cellular binding assay [RFU]" value=46
binder="P018.S.08.A.E03 (antibody, V domains shown, V regions on human Ig constant parts; also called AB137_2) VH: QSVEESGGRLVTPGTPLTLTCTVSGFSLTYYAVTWVRQPPGKGLEWIGVIYDNGATAFATWAKGRFTMSKNSTTVALKVTSPTTEDTATYFCARSANNAWSTYSNLWGQGTLVTVSS VL: DIVMTQTPSSVSAAVGGTVTINCQASEDISSYLSWYQQKLGQPPKLLIYKASTLESGVPSRFKGSGSGTEYTLTISDLESDDAATYYCQSYYSGSISGYGFVFGGGTGVVVK" outcome_measure="Cellular binding assay [RFU]" value=9
binder="P018.S.14.A.G03 (antibody, V domains shown, V regions on human Ig constant parts; also called AB137_11) VH: QSLEESGGRLVTPGTPLTLTCTVSGIDLSSYHMCWVRQAPGKGLEYIGYIAYGGNTYYANWAKGRFTISKTSTTVDLRITSPTTEDTATYFCARGYSEDSYWGLWGPGTLVTVSS VL: AYDMTQTPASVEAAVGGTVTIKCQASQNIENYLAWYQQKPGQPPKLLIYDTSKLTSGVPSRFSGSGSGTDFTLTISGVQSDDAATYYCQQDYGIIFVDNIFGGGTEVVVK" outcome_measure="Cellular binding assay [RFU]" value=19
binder="P018.S.13.A.G04 (antibody, V domains shown, V regions on human Ig constant parts; also called AB137_8) VH: QSLEESGGRLVTPGTPLTLTCTASGFSLSSYDMSWVRQAPGKGLEYIGYISSSGNTYYASWAKSRFTISKTSTTVDLKITSPTTEDTATYFCAREGDYWDFNLWGPGTLVTVSS VL: AQVLTQTPSSVSAAVGGTVTINCQASQSISNLLAWYQQKPGQRPRLLIYRASTLASGVPSRFKGSGSGTEFTLTISDLESEDAATYYCAGGFPGLDTGATFGGGTEAVVT" outcome_measure="Cellular binding assay [RFU]" value=1
binder="P018.S.08.A.F03 (antibody, V domains shown, V regions on human Ig constant parts; also called AB137_3) VH: QSVEESGGRLVTPGTPLTLTCTASGFTISSYHMIWVRQAPGEGLEWIGDIYGGTATTDYASWAKGRFTISKTSTTVDLKMTSLTTEDTATYFCARARYSGGSYANYVFNLWGQGTLVTVSS VL: DIVMTQTPASVEAAVGGTVTIKCQASQSISSYLAWYQQKPGQPPKLLIYRTSTLESGVPSRFKGSGSGTEFTLTISDLESADAATYYCQGYDWSSSNRYDNTFGGGTEVVVK" outcome_measure="Cellular binding assay [RFU]" value=7

Taken from patent US20210253725A1.
